Subject of test: rabbit muscle GAPDH (Oryctolagus cuniculus, UniProt P46406)
Sequence (P46406 whole entry): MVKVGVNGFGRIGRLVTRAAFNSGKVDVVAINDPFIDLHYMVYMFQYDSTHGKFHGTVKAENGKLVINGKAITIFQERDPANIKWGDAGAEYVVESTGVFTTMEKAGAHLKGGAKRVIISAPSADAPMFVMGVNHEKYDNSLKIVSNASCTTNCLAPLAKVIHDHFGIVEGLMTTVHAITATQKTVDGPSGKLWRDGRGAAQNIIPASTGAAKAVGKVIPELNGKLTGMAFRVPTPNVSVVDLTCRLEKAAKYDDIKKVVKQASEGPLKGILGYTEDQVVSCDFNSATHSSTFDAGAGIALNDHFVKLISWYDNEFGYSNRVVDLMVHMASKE
Measured quantity: pIC50
Note: pIC50 values are expressed as the negative base-10 logarithm of concentration in M.

Prompt: rabbit muscle GAPDH (Oryctolagus cuniculus, UniProt P46406) / pIC50 / `O=Nc1ccccc1` : value?
Completion: 6.64

* * *

Subject of test: GAPDH (Oryctolagus cuniculus)
Sequence (P46406 whole entry): as above
Procedure details: High resolution LC-MS of structural modifications of GAPDH tryptic peptides
Parameters: species or system rabbit
Condition parameters: LC-MS after trypsin digest; 10 eq. where printed
Measured quantity: Products, GAPDH tryptic peptide V232–R245 (Cys 244)

CC(C)(C)C(=O)OC1(N=O)CCCCC1 [compound 2, 1-nitrosocyclohexyl pivalate] = Sulfinic acid
CC(=O)OC1(N=O)CCCCC1 [compound 1, 1-Nitrosocyclohexyl acetate] = Sulfinic acid
O=Nc1ccccc1 = Sulfinic acid

* * *

Subject of test: AhpC C165S (Salmonella typhimurium, UniProt P0A251, C166S)
Condition parameters: LC-MS after Asp-N digest; 10 eq. where printed
Measured quantity: Products, C165S AhpC Asp-N peptide D41–G51 (Cys 46)

O=Nc1ccccc1 = Sulfinic acid
CC(=O)OC1(N=O)CCCCC1 [compound 1, 1-Nitrosocyclohexyl acetate] = Sulfinic acid
CC(C)(C)C(=O)OC1(N=O)CCCCC1 [compound 2, 1-nitrosocyclohexyl pivalate] = Sulfinic acid
